Tested target: human/mouse CD137 chimera 1554 (human/mouse chimera) (UniProt Q07011)
Method notes: flow cytometry, transfected 293-F cells
Quantity measured: relative MFI normalized to full-length human CD137
Lab note: record just the number, no unit beside it.

Study these solved cases before continuing.
Binder	Recorded measurement
1620/1621 (antibody, V domains shown) VH: EVQLLESGGGLVQPGGSLRLSCAASGFTFSGYYMYWVRQAPGKGLEWVSGISSSGSYTYYADSVKGRFTISRDNSKNTLYLQMNSLRAEDTAVYYCARSVGPYFDYWGQGTLVTVSS VL: DIQMTQSPSSLSASVGDRVTITCRASQSISSYLNWYQQKPGKAPKLLIYAASSLQSGVPSRFSGSGSGTDFTLTISSLQPEDFATYYCQQGVGPYTFGQGTKLEIK	0.17
1626/1627 (antibody, V domains shown) VH: EVQLLESGGGLVQPGGSLRLSCAASGFTFGGYSMYWVRQAPGKGLEWVSSIGGYYYSTYYADSVKGRFTISRDNSKNTLYLQMNSLRAEDTAVYYCARSYYGSIDYWGQGTLVTVSS VL: DIQMTQSPSSLSASVGDRVTITCRASQSISSYLNWYQQKPGKAPKLLIYAASSLQSGVPSRFSGSGSGTDFTLTISSLQPEDFATYYCQQGTGYGPLTFGQGTKLEIK	0.12

Kindly consider the entry below.
query: Give a short answer stating reported relative MFI normalized to full-length human CD137 for 1202/1203 (antibody, V domains shown) VH: EVQLLESGGGLVQPGGSLRLSCAASGFTFYGSSMSWVRQAPGKGLEWVSSIYYGSSGTYYADSVKGRFTISRDNSKNTLYLQMNSLRAEDTAVYYCARSYYGYFDYWGQGTLVTVSS VL: DIQMTQSPSSLSASVGDRVTITCRASQSISSYLNWYQQKPGKAPKLLIYAASSLQSGVPSRFSGSGSGTDFTLTISSLQPEDFATYYCQQYYTVVPFTFGQGTKLEIK .
result: 0.51
